system: Kasumi-1; test: Dose-response viability curves in AML cell lines; type: cell-based; conditions: Homo sapiens, 48 h
quantity_name: EC50 (µM)

>>> df
                                   compound  observed_measurement
0  CN1CCC(=C2c3ccccc3-c3c2sc2ccccc32)CC1 [EDK-87]                   6.3

---

tested on: KG1; assay: Dose-response viability curves in AML cell lines; assay type: cell-based; settings: Homo sapiens, KG-1, 48 h
pEC50: −log10 of the molar value.
quantity_name: pEC50

>>> df
                        smiles_structure  observed_measurement
0  CN1CCC(=C2c3ccccc3-c3c2sc2ccccc32)CC1                  5.15
